B1: Membrane-associated guanylate kinase, WW and PDZ domain-containing protein 2, residues 296 to 340; numbered along this chain, Q86UL8 (parent)
chain: EDNEEPDPLPDNWEMAYTEKGEVYFIDHNTKTTSWLDPRLAKKAK

Variants of: B1
Protocol description: abundance fitness (aPCA) (normalised: wild type 0, dead -1); higher = more abundant; growth selection in yeast, the domain comes from the species named
Recorded conditions: Homo sapiens
Assay readout: abundance fitness
Returns: the value as a bare number; no unit string appended.

Name the recorded abundance fitness of the item `R39H` in your answer.
-0.419

Name the recorded abundance fitness of the item `K20E` in your answer.
0.027

Name the recorded abundance fitness of the item `Y17H` in your answer.
0.066

Name the recorded abundance fitness of the item `N3G` in your answer.
-0.081

Name the recorded abundance fitness of the item `L40N` in your answer.
0.117

Name the recorded abundance fitness of the item `A41G` in your answer.
0.138

Name the recorded abundance fitness of the item `L36I` in your answer.
0.086

Name the recorded abundance fitness of the item `N3R` in your answer.
0.157

Name the recorded abundance fitness of the item `L40W` in your answer.
-0.133

Name the recorded abundance fitness of the item `P10H` in your answer.
-0.614

Name the recorded abundance fitness of the item `D37K` in your answer.
-0.246

Name the recorded abundance fitness of the item `Y17I` in your answer.
0.017

Name the recorded abundance fitness of the item `E22R` in your answer.
-0.409

Name the recorded abundance fitness of the item `E1G` in your answer.
0.009

Name the recorded abundance fitness of the item `K43V` in your answer.
0.023

Name the recorded abundance fitness of the item `E1I` in your answer.
-1.23

Name the recorded abundance fitness of the item `Y17R` in your answer.
0.049

Name the recorded abundance fitness of the item `D2A` in your answer.
0.125

Name the recorded abundance fitness of the item `T33K` in your answer.
-0.492

Name the recorded abundance fitness of the item `T33A` in your answer.
-0.438

Name the recorded abundance fitness of the item `D2S` in your answer.
0.068

Name the recorded abundance fitness of the item `D11P` in your answer.
-0.099

Name the recorded abundance fitness of the item `G21I` in your answer.
-0.865

Name the recorded abundance fitness of the item `F25N` in your answer.
-0.756

Name the recorded abundance fitness of the item `W35F` in your answer.
-0.083

Name the recorded abundance fitness of the item `T30M` in your answer.
-0.388

Name the recorded abundance fitness of the item `T32F` in your answer.
-0.843

Name the recorded abundance fitness of the item `E1Y` in your answer.
0.094

Name the recorded abundance fitness of the item `G21S` in your answer.
-0.208

Name the recorded abundance fitness of the item `T18Q` in your answer.
-0.849

Name the recorded abundance fitness of the item `E1K` in your answer.
0.058

Name the recorded abundance fitness of the item `E1R` in your answer.
0.128

Name the recorded abundance fitness of the item `P6Y` in your answer.
-0.017

Name the recorded abundance fitness of the item `I26W` in your answer.
-0.691

Name the recorded abundance fitness of the item `L36N` in your answer.
-0.186

Name the recorded abundance fitness of the item `H28V` in your answer.
-0.407

Name the recorded abundance fitness of the item `K42G` in your answer.
0.014

Name the recorded abundance fitness of the item `V23G` in your answer.
-0.088

Name the recorded abundance fitness of the item `D2N` in your answer.
0.072

Name the recorded abundance fitness of the item `R39T` in your answer.
-0.366

Name the recorded abundance fitness of the item `D11M` in your answer.
-0.015

Name the recorded abundance fitness of the item `T30F` in your answer.
-0.575

Name the recorded abundance fitness of the item `Y17W` in your answer.
0.021

Name the recorded abundance fitness of the item `N29Q` in your answer.
-0.13

Name the recorded abundance fitness of the item `N12V` in your answer.
-0.703

Name the recorded abundance fitness of the item `L40A` in your answer.
0.059

Name the recorded abundance fitness of the item `E22K` in your answer.
-0.234

Name the recorded abundance fitness of the item `K45S` in your answer.
0.076

Name the recorded abundance fitness of the item `N3F` in your answer.
-0.029

Name the recorded abundance fitness of the item `T30Q` in your answer.
-0.155

Name the recorded abundance fitness of the item `R39P` in your answer.
-0.633

Name the recorded abundance fitness of the item `K20V` in your answer.
-0.075

Name the recorded abundance fitness of the item `S34A` in your answer.
-0.43

Name the recorded abundance fitness of the item `I26L` in your answer.
-0.089

Name the recorded abundance fitness of the item `K31R` in your answer.
0.005
